target or test system: OTU domain-containing protein 3 (Homo sapiens) (UniProt Q5T2D3)
Sequence (Q5T2D3 whole entry, looked up, the tested form may be a part): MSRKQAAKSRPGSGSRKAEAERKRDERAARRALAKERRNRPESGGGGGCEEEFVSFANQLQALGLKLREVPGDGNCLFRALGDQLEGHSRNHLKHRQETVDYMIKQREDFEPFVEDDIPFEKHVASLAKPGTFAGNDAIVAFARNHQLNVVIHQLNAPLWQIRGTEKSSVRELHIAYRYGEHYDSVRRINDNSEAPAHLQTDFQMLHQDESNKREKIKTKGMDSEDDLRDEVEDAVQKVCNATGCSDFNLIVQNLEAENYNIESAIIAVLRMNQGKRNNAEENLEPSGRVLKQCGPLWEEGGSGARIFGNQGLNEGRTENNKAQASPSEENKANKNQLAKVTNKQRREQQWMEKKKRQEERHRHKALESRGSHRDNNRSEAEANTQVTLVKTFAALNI
experiment notes: Validation of screening hits, potency titration, in vitro enzymatic, OTU domain-containing protein 3 DUB inhibitors (AID 1645868)
condition set: purified OTUD3, ubiquitin-rhodamine cleavage fluorescence, 2 h
Calls of active or inactive are those of the source.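 How the source made its calls: active means maximal percent inhibition of the deubiquitinase OTUD3 of at least 30% across the tested doses; inactive means the rest.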
measurement kind: IC50

Known IC50 results, listed for orientation:
> print(dat)
                                   compound  measurement.kind  recorded.measurement
1  COc1ccc(CCC(=O)Nc2ccc3c(c2)Sc2ncccc2C(=O)N3C)cc1              IC50    > 50 µM (inactive)
2  CN1CC2CN(C(=O)Nc3cccnc3)CCN2Cc2ccccc21 (stereo not given)              IC50    > 50 µM (inactive)
3  O=S(c1ccc2ccccc2c1)c1cnns1 (stereo not given)              IC50    > 50 µM (inactive)
4    O=C(Cn1nnc(-c2ccc(F)cc2)n1)NCCc1ccccc1              IC50    > 50 µM (inactive)
5  Cc1cc(C(=O)CN2CCN(Cc3ccc4c(c3)OCO4)CC2)c(C)n1-c1ccc2c(c1)OCO2              IC50    > 50 µM (inactive)
6  COc1ccc(Nc2ncc(C(=O)Nc3ccc(Oc4ccccc4)cc3)c3ccccc23)cc1              IC50    > 50 µM (inactive)
7   Oc1ccc(-c2nc3cnccn3c2NCCc2ccccc2)c(O)c1              IC50    > 50 µM (inactive)
8  Cc1cc(/C=C2/C(=N)N3C(c4ccccc4)=CSC3=NC2=O)c(C)n1-c1ccc(F)cc1              IC50    > 50 µM (inactive)

Sample Cc1c(OCC(=O)Nc2nc3ccccc3[nH]2)ccc2c3c(c(=O)oc12)CCC3 — what was its IC50?
2.66 µM

Sample Cc1cccc(Cl)c1NC(=O)Nc1ccc(NC(=O)c2ccccc2O)cc1 — what was its IC50?
47.8 µM

====

target or test system: OTU domain-containing protein 3 (Homo sapiens) (UniProt Q5T2D3)
experiment notes: Validation of screening hits, potency titration, in vitro enzymatic, OTU domain-containing protein 3 DUB inhibitors (AID 1645868)
condition set: purified OTUD3, ubiquitin-rhodamine cleavage fluorescence, 2 h
The source made the active and inactive calls.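 The calls were made as follows: active = maximal percent inhibition of the deubiquitinase OTUD3 of at least 30% across the tested doses; inactive = the rest.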
Could you please pick one outcome from this set? active, inactive

> print(dat)
                                   compound  label.class
1  CCCn1cc(C(=O)N2CCC3(CC2)CC2(CO3)Nc3ccccc3-n3cccc32)c(C)n1 (stereo unspecified)     inactive
2  Cc1cccc(NC(=O)c2nc(N3CCSCC3)c3cnn(C)c3n2)c1     inactive
3     O=C(CCC1CCCCC1)Nc1ccccc1C(=O)N1CCOCC1     inactive
4       COc1ccc(CCNC(=O)c2cc3ccccc3s2)cc1OC     inactive
5  COc1ccccc1C(=O)N1CCc2[nH]c3ccc(F)cc3c2C1     inactive

Now consider the entry below.
Could you kindly confirm the outcome this assay logged for COc1cc(O)c2c(c1)C1=CC(=O)C(O)=C[C@]1(C)OC2=O ?
active

====

target or test system: OTU domain-containing protein 3 (Homo sapiens) (UniProt Q5T2D3)
experiment notes: Validation of screening hits, potency titration, in vitro enzymatic, OTU domain-containing protein 3 DUB inhibitors (AID 1645868)
condition set: purified OTUD3, ubiquitin-rhodamine cleavage fluorescence, 2 h
The source made the active and inactive calls.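 The calls were made as follows: active = maximal percent inhibition of the deubiquitinase OTUD3 of at least 30% across the tested doses; inactive = the rest.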
Could you please pick one outcome from this set? 1 for active, 0 for inactive

Below are worked cases with known answers.
> print(dat)
                                   molecule  label.class
1    COc1ccc(NC(=O)COc2ccc3ccc(=O)oc3c2)cc1            0
2  COc1ccc(NC(=O)c2sc(N3CCOCC3)nc2-c2ccccc2)c(OC)c1            1
3  CCNc1nc(SCC(C)=O)nc2sc3c(c12)CCC(C)C3 (stereo unspecified)            0
4  CCc1cc2cc3c(cc2nc1SCC(=O)Nc1cccc(C(C)=O)c1)OCO3            1
5  Cc1ccc(-n2nc(C)c3c2NC(=O)CC3C(=O)c2cc3ccccc3o2)cc1C (stereo unspecified)            0

Now consider the entry below.
Could you kindly confirm the outcome this assay logged for CC(=O)c1cccc(NC(=O)c2ccc3[nH]c4c(c3c2)CC(C)CC4)c1 (stereo unspecified) ?
0
